Reference source for all entries: paper PMC6797481

Target: GlyT2 Y550L mutant (Homo sapiens, UniProt Q9Y345, Y550L)
Construct: expressed in transfected cells; host or cells: Xenopus laevis oocytes (cRNA injection)
Sequence (Q9Y345 whole entry Y550L): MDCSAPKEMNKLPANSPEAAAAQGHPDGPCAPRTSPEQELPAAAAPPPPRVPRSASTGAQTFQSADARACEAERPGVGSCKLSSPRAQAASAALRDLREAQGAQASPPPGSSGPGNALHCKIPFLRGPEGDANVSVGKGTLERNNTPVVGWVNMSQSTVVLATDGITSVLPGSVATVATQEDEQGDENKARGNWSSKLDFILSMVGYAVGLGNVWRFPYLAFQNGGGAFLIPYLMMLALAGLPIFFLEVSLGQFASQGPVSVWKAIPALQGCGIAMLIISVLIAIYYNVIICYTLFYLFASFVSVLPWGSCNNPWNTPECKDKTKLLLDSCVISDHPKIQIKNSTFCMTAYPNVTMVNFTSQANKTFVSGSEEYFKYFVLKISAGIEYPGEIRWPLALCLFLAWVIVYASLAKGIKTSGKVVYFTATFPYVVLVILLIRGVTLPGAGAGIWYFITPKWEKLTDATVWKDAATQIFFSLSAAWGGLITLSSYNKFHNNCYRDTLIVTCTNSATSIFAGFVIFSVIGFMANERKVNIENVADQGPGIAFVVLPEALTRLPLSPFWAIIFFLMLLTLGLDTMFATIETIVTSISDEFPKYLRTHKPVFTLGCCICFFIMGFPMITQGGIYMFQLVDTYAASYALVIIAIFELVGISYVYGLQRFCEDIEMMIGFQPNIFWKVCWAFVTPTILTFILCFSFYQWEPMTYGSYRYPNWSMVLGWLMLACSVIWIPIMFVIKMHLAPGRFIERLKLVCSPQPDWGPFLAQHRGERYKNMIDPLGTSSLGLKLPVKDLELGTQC
Test: Glycine transport currents, two electrode voltage clamp, oocytes expressing GlyT2 Y550L
Assay type: cell-based
Conditions: GlyT2 Y550L; mean (95% CI)
Experimental: Glycine was first applied to establish maximal transport current. Compounds were tested for inhibition of glycine transport on Xenopus laevis oocytes expressing mutant GlyT1 and GlyT2 transporters. n values are in brackets, with measurements taken from at least 2 batches of oocytes.
Field: pIC50. Provide a value for each of the compounds that follow.
Hey, just a heads up that pIC50 is the negative log base 10 of the concentration in molar.

IN: Report pIC50 for CCCCCCCC/C=C\CCCCCCCC(=O)NCC(=O)O [N-oleoyl Glycine, reference compound] tested on GlyT2 Y550L mutant (Homo sapiens, UniProt Q9Y345, Y550L).
OUT: 6.08

IN: Record lookup: for GlyT2 Y550L mutant (Homo sapiens, UniProt Q9Y345, Y550L), what pIC50 belongs to CCCCCCCC/C=C\CCCCCCCC(=O)N[C@H](C(=O)O)C(C)C ?
OUT: 5.53

IN: Provide the documented pIC50 with GlyT2 Y550L mutant (Homo sapiens, UniProt Q9Y345, Y550L) as the system for CCCCCCCC/C=C\CCCCCCCC(=O)N[C@@H](CCCCN)C(=O)O
OUT: 6.68
